assay: Half life in Sprague-Dawley rat at […], iv by LC-MS/MS analysis; assay type: ADME, organism-based; conditions: in vivo
RESULT_TYPE: half-life
Quick note: number first, unit second.

Bench note: what half-life did "O=c1c2ccccc2oc2c(Cc3ccc4c(c3)OCO4)[nH]c(-c3nccs3)c12" show?
6.02 h

---

test: Apparent clearance in human liver microsomes at 0.5 uM; type: ADME, microsome; conditions: read-out: CLH(app)
RESULT_TYPE: CLint scaled at 0.5 µM

Requested field: CLint scaled at 0.5 µM. Item: "O=c1c2ccccc2oc2c(Cc3ccc4c(c3)OCO4)[nH]c(-c3nccs3)c12"
1.43 L/h/kg

---

assay: MRT (0 to t) in Sprague-Dawley rat at […], iv by LC-MS/MS analysis; type: ADME, organism-based; details: in vivo
RESULT_TYPE: MRT last
Enter the number, and then the unit.

Tell me the measured MRT last of "O=c1c2ccccc2oc2c(Cc3ccc4c(c3)OCO4)[nH]c(-c3nccs3)c12" , please.
2.14 h

---

molecular target: 3',5'-cyclic-AMP phosphodiesterase 4D (Homo sapiens, UniProt Q08499)
Sequence (Q08499 whole entry): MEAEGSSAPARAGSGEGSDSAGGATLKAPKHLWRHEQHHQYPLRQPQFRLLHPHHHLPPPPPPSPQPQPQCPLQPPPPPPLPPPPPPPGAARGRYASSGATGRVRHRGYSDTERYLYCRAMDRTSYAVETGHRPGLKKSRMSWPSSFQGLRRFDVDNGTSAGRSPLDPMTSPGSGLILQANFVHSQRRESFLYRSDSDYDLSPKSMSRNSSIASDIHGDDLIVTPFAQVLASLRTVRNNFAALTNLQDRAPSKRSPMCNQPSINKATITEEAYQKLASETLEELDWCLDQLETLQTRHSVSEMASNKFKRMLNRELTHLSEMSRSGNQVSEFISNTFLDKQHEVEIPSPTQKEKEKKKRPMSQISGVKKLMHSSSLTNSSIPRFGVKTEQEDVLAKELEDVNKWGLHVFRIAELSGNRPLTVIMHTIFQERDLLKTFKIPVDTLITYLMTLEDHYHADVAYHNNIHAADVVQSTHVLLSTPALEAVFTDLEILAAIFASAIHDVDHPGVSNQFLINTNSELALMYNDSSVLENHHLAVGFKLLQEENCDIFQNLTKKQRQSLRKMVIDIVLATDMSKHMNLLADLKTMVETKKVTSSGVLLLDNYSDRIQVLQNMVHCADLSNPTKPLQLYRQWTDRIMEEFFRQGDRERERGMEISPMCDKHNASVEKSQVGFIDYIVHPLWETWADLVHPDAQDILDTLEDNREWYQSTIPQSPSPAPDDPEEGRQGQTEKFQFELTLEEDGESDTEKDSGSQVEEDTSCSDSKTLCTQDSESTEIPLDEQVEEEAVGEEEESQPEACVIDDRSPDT
RESULT_TYPE: IC50 (nM)
Entry rule: numbers only, all in nM.

Recorded IC50 of "O=c1c2ccccc2oc2c(Cc3ccc4c(c3)OCO4)[nH]c(-c3nccs3)c12" , please.
2770

---

test: Hepatic clearance in human microsomes; type: ADME, microsome; details: liver microsomes
RESULT_TYPE: CLhep predicted (mL/min/kg)
Entry rule: numbers only, all in mL/min/kg.

Consider the compound "Cc1ncc2n1-c1ccc(Cl)cc1C(c1ccccc1F)=NC2" and give its measured CLhep predicted.
19.2

---

Molecular target: Cytochrome P450 1A2 (Homo sapiens)
Sequence (P05177 whole entry): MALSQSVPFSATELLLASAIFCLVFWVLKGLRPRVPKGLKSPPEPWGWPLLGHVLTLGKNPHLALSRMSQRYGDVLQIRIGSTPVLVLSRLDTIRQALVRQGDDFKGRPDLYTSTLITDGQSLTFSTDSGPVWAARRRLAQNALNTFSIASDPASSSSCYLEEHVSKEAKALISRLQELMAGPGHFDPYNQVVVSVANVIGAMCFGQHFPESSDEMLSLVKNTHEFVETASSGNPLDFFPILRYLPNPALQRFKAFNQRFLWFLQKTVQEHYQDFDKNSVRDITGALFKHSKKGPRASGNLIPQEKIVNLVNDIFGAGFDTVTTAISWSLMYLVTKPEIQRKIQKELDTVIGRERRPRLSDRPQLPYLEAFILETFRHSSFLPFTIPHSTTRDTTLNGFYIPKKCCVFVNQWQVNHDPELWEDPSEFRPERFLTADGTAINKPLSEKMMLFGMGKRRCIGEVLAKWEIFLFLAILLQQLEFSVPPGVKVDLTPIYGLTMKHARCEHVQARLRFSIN
RESULT_TYPE: IC50 (µM)
I only need the number, in µM, no unit after it.

Need IC50, item "O=c1c2ccccc2oc2c(Cc3ccc4c(c3)OCO4)[nH]c(-c3nccs3)c12"
7.6

---

assay: Half life in human microsomes at 0.5 uM; type: ADME, microsome; settings: liver microsomes
RESULT_TYPE: half-life at 0.5 µM (min)
Use min as the unit, but write only the number.

Given "O=c1c2ccccc2oc2c(Cc3ccc4c(c3)OCO4)[nH]c(-c3nccs3)c12" , state its recorded half-life at 0.5 µM.
56

---

assay: Tmax in Sprague-Dawley rat at 5 mg/kg, po by LC-MS/MS analysis; format: ADME, organism-based; details: in vivo
RESULT_TYPE: Tmax (h)
# number only, unit h dropped from output

Which Tmax is reported for this compound? "O=c1c2ccccc2oc2c(Cc3ccc4c(c3)OCO4)[nH]c(-c3nccs3)c12"
4

---

target: High affinity cGMP-specific 3',5'-cyclic phosphodiesterase 9A (Homo sapiens, UniProt O76083)
Sequence (O76083 whole entry): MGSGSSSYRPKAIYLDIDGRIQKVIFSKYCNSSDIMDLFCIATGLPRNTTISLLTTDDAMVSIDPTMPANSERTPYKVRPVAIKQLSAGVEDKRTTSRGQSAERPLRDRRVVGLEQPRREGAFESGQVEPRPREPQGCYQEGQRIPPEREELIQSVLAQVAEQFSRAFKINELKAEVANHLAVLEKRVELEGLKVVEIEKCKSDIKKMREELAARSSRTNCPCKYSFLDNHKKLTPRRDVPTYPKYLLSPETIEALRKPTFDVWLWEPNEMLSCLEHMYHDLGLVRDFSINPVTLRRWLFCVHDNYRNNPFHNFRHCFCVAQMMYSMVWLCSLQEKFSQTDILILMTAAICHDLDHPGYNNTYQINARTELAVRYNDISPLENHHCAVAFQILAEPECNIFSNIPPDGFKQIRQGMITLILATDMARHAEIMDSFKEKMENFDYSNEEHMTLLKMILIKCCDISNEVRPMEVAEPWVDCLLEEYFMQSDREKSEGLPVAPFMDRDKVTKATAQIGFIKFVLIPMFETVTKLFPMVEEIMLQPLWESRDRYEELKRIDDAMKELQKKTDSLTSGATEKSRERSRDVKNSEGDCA
pIC50: −log10 of the molar value.
RESULT_TYPE: pIC50

Reported pIC50, compound "O=c1c2ccccc2oc2c(Cc3ccc4c(c3)OCO4)[nH]c(-c3nccs3)c12" : ____
< 5.00
